EXPERIMENT NOTES: Intrapulmonary (ELF, AC) and plasma pharmacokinetics after multiple-dose IV relebactam with imipenem-cilastatin, bronchoscopy/BAL, noncompartmental analysis
Format: in vivo, human (healthy subjects)
CONDITION SET: both sexes, human, intravenous; AC; mean profile; same regimen
PARAMETER: Tmax (h)
Numeric answer only, unit h assumed.

Exam item: Endpoint output: Tmax of "O=C(NC1CCNCC1)[C@@H]1CC[C@@H]2CN1C(=O)N2OS(=O)(=O)O" . Value?
Marked response: 1

----------
EXPERIMENT NOTES: Intrapulmonary (ELF, AC) and plasma pharmacokinetics after multiple-dose IV relebactam with imipenem-cilastatin, bronchoscopy/BAL, noncompartmental analysis
Assay type: in vivo, human (healthy subjects)
CONDITION SET: both sexes, human, intravenous; AC; mean profile, noncompartmental analysis; same regimen
Procedure: Dosing and administration of imipenem-cilastatin were carried out in a manner consistent with the recommended labeled posology. […] Relebactam and imipenem levels in plasma, pulmonary ELF, and AC were measured simultaneously via acetonitrile protein precipitation and hydrophilic interaction liquid chromatography (HILIC) with detection via liquid chromatography-tandem mass spectrometry (LC-MS/MS). […]
PARAMETER: AUC(0-inf) (µM·h)
Give the quantity in µM·h, number only.

Exam item: Given the compound O=C(NC1CCNCC1)[C@@H]1CC[C@@H]2CN1C(=O)N2OS(=O)(=O)O [relebactam] , what is its reported AUC(0-inf)?
Marked response: 23.6

----------
EXPERIMENT NOTES: Intrapulmonary (ELF, AC) and plasma pharmacokinetics after multiple-dose IV relebactam with imipenem-cilastatin, bronchoscopy/BAL, noncompartmental analysis
Assay type: in vivo, human (healthy subjects)
CONDITION SET: both sexes, human, AC/plasma, intravenous, same regimen; 3.0 h after last dose; n=4; read-out: AC/plasma concn GMR (90% CI)
PARAMETER: Kp at 3 h
# answer = number (no unit)

Exam item: Please look up its Kp at 3 h: "O=C(NC1CCNCC1)[C@@H]1CC[C@@H]2CN1C(=O)N2OS(=O)(=O)O"
Marked response: 0.51

----------
I'd appreciate it if you could supply AUC(0-inf) values for the items below.
EXPERIMENT NOTES: Intrapulmonary (ELF, AC) and plasma pharmacokinetics after multiple-dose IV relebactam with imipenem-cilastatin, bronchoscopy/BAL, noncompartmental analysis
Assay type: in vivo, human (healthy subjects)
CONDITION SET: both sexes, human, intravenous; ELF; mean profile, noncompartmental analysis; same regimen
I only need the number, in µM·h, no unit after it.

Exam item: // AUC(0-inf) lookup, key: "C[C@@H](O)[C@H]1C(=O)N2C(C(=O)O)=C(SCCN=CN)C[C@H]12"
Marked response: 57.4

Exam item: Check "O=C(NC1CCNCC1)[C@@H]1CC[C@@H]2CN1C(=O)N2OS(=O)(=O)O" too.
Marked response: 34.9

----------
EXPERIMENT NOTES: Intrapulmonary (ELF, AC) and plasma pharmacokinetics after multiple-dose IV relebactam with imipenem-cilastatin, bronchoscopy/BAL, noncompartmental analysis
Format: in vivo, human (healthy subjects)
CONDITION SET: both sexes, human, intravenous; plasma; mean profile; same regimen
PARAMETER: Tmax
Remember to follow the number with its unit.

Exam item: What does the record list as Tmax for "O=C(NC1CCNCC1)[C@@H]1CC[C@@H]2CN1C(=O)N2OS(=O)(=O)O" ?
Marked response: 30 min

Exam item: Queued: "C[C@@H](O)[C@H]1C(=O)N2C(C(=O)O)=C(SCCN=CN)C[C@H]12"
Marked response: 30 min

----------
EXPERIMENT NOTES: Relebactam population PK model (two-compartment plasma model with time-invariant ELF partition coefficient)
Assay type: in vivo, human (healthy subjects)
CONDITION SET: human, plasma, intravenous; population PK structural model; read-out: Clearance (θCL) (converted)
PARAMETER: clearance (mL/min)
Your answer should be a plain number; it is taken to be in mL/min.

Exam item: Which measured clearance value corresponds to O=C(NC1CCNCC1)[C@@H]1CC[C@@H]2CN1C(=O)N2OS(=O)(=O)O [relebactam] ?
Marked response: 153

----------
Kindly state concentration at 1 h for each of the entries shown.
EXPERIMENT NOTES: Intrapulmonary (ELF, AC) and plasma pharmacokinetics after multiple-dose IV relebactam with imipenem-cilastatin, bronchoscopy/BAL, noncompartmental analysis
Type: in vivo, human (healthy subjects)
CONDITION SET: both sexes, human, ELF, intravenous; same regimen; 1 h after last dose; n=4; read-out: concn in ELF, GM
Kindly provide the numeric value in µM only, without the unit symbol.

Exam item: If you can, please state the reported concentration at 1 h value of "O=C(NC1CCNCC1)[C@@H]1CC[C@@H]2CN1C(=O)N2OS(=O)(=O)O" .
Marked response: 10.9

Exam item: How about "C[C@@H](O)[C@H]1C(=O)N2C(C(=O)O)=C(SCCN=CN)C[C@H]12" ?
Marked response: 20.3

----------
I'd be grateful if you could share measured half-life for these entries.
EXPERIMENT NOTES: Intrapulmonary (ELF, AC) and plasma pharmacokinetics after multiple-dose IV relebactam with imipenem-cilastatin, bronchoscopy/BAL, noncompartmental analysis
Assay type: in vivo, human (healthy subjects)
CONDITION SET: both sexes, human, plasma, intravenous, plasma; mean profile; same regimen; read-out: t1/2 (terminal half-life) (converted)
Method: Dosing and administration of imipenem-cilastatin were carried out in a manner consistent with the recommended labeled posology. […] Relebactam and imipenem levels in plasma, pulmonary ELF, and AC were measured simultaneously via acetonitrile protein precipitation and hydrophilic interaction liquid chromatography (HILIC) with detection via liquid chromatography-tandem mass spectrometry (LC-MS/MS). […]
Field: numeric (h). Do not append units.

Exam item: # input molecule: "C[C@@H](O)[C@H]1C(=O)N2C(C(=O)O)=C(SCCN=CN)C[C@H]12" ; wanted: its half-life
Marked response: 1

Exam item: Record: "O=C(NC1CCNCC1)[C@@H]1CC[C@@H]2CN1C(=O)N2OS(=O)(=O)O"
Marked response: 1.2

----------
EXPERIMENT NOTES: Intrapulmonary (ELF, AC) and plasma pharmacokinetics after multiple-dose IV relebactam with imipenem-cilastatin, bronchoscopy/BAL, noncompartmental analysis
Assay type: in vivo, human (healthy subjects)
CONDITION SET: both sexes, human, AC/plasma, intravenous, mean profiles, after adjustment for protein binding; read-out: relative exposure (AUC0–∞) in AC versus plasma
PARAMETER: Kp
Please reply with the value in numeric form only.

Exam item: Suppose we examine the molecule "O=C(NC1CCNCC1)[C@@H]1CC[C@@H]2CN1C(=O)N2OS(=O)(=O)O" ; what Kp value has been reported?
Marked response: 0.36

----------
Record form. Attribute: AUC(0-inf). Fill in for each entry.
EXPERIMENT NOTES: Intrapulmonary (ELF, AC) and plasma pharmacokinetics after multiple-dose IV relebactam with imipenem-cilastatin, bronchoscopy/BAL, noncompartmental analysis
Type: in vivo, human (healthy subjects)
CONDITION SET: both sexes, human, intravenous; plasma; mean profile, noncompartmental analysis; same regimen
Output spec: scalar in µM·h, unitless text.

Exam item: // query AUC(0-inf) value for entry "C[C@@H](O)[C@H]1C(=O)N2C(C(=O)O)=C(SCCN=CN)C[C@H]12"
Marked response: 130

Exam item: Can you handle "O=C(NC1CCNCC1)[C@@H]1CC[C@@H]2CN1C(=O)N2OS(=O)(=O)O" next?
Marked response: 81.2

----------
EXPERIMENT NOTES: Intrapulmonary (ELF, AC) and plasma pharmacokinetics after multiple-dose IV relebactam with imipenem-cilastatin, bronchoscopy/BAL, noncompartmental analysis
Format: in vivo, human (healthy subjects)
CONDITION SET: both sexes, human, AC, intravenous, AC; mean profile; same regimen; read-out: t1/2 (terminal half-life) (converted)
PARAMETER: half-life (h)
Supply the numeric figure in h, leaving out any unit text.

Exam item: What value of measured half-life is listed for O=C(NC1CCNCC1)[C@@H]1CC[C@@H]2CN1C(=O)N2OS(=O)(=O)O [relebactam] ?
Marked response: 2.3

----------
EXPERIMENT NOTES: Intrapulmonary (ELF, AC) and plasma pharmacokinetics after multiple-dose IV relebactam with imipenem-cilastatin, bronchoscopy/BAL, noncompartmental analysis
Type: in vivo, human (healthy subjects)
CONDITION SET: both sexes, human, ELF, intravenous, ELF; mean profile; same regimen; read-out: t1/2 (terminal half-life) (converted)
Answer each item with its documented half-life.
Could you give me the number in h? Just the number is fine.

Exam item: Give the measured half-life of "C[C@@H](O)[C@H]1C(=O)N2C(C(=O)O)=C(SCCN=CN)C[C@H]12" .
Marked response: 1

Exam item: Now consider "O=C(NC1CCNCC1)[C@@H]1CC[C@@H]2CN1C(=O)N2OS(=O)(=O)O" .
Marked response: 1.3

----------
EXPERIMENT NOTES: Intrapulmonary (ELF, AC) and plasma pharmacokinetics after multiple-dose IV relebactam with imipenem-cilastatin, bronchoscopy/BAL, noncompartmental analysis
Assay type: in vivo, human (healthy subjects)
CONDITION SET: both sexes, human, ELF/plasma, intravenous, calculated as 100 · ELF AUC0–∞/plasma AUC0–∞; mean profiles; read-out: ELF/plasma AUC0–∞ ratio
PARAMETER: Kp

Exam item: May I ask what Kp has been recorded for "O=C(NC1CCNCC1)[C@@H]1CC[C@@H]2CN1C(=O)N2OS(=O)(=O)O" ?
Marked response: 0.43

Exam item: Also check "C[C@@H](O)[C@H]1C(=O)N2C(C(=O)O)=C(SCCN=CN)C[C@H]12"
Marked response: 0.442
